For each entry below, report its %Inh value.
- Test system: PIKFYVE
- condition: concentration: 1 μM, replicates: in singlicate; n = 1;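 further: KINOMEscan kinase panel screen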
Express it in %; write the number only.

Inquiry: # input compound: Fc1ccc(-c2ncn(CCCN3CCOCC3)c2-c2ccccn2)cc1 ; wanted: its %Inh
Reply text: 9

Inquiry: Same again, this time with CN(C1=C(c2ccccc2)C(=O)NC1=O)c1ccccc1
Reply text: 10

Inquiry: Same again, this time with CC(C)Oc1ccc2c(-c3ccnc(Nc4ccc(N5CCN(C)CC5)cc4)n3)cnn2n1
Reply text: 92.8

Inquiry: Same again, this time with Fc1ccc(-c2nn3c(OCC(F)(F)F)cccc3c2-c2ccncc2)cc1
Reply text: 51

Inquiry: Same again, this time with CN1c2ccc(CNc3ccc(F)cc3)cc2-c2c(cnn2C)S1(=O)=O
Reply text: 17

---

- Test system: CSF1R-autoinhibited
- condition: concentration: 1 μM, replicates: in singlicate; n = 1
For each entry below, report its %Inh value.

Inquiry: # input compound: NS(=O)(=O)c1cccc(-c2ccc3nccc(-c4cccc(S(N)(=O)=O)c4)c3c2)c1 ; wanted: its %Inh
Reply text: 0%

Inquiry: Same again, this time with O=c1cc(N2CCOCC2)nc2n(Cc3cccc(F)c3)ccn12
Reply text: 0%

Inquiry: Same again, this time with O=c1cc(N2CCOCC2)nc2n(Cc3cccc4ccccc34)ccn12
Reply text: 0%

Inquiry: Same again, this time with O=c1cc(N2CCOCC2)nc2n(Cc3cccc(C(F)(F)F)c3)ccn12
Reply text: 0%

Inquiry: Same again, this time with NS(=O)(=O)c1cccc(-c2ccc3ncc(N4CCOCC4)nc3c2)c1
Reply text: 8%

Inquiry: Same again, this time with CC(=O)Nc1ccc(COc2ccc(Nc3ccnc4cc(-c5ccccn5)ccc34)cc2)cc1.Cl
Reply text: 32%

Inquiry: Same again, this time with COCCNC(=O)c1ccc(-c2cc(C(=O)NC3CC3)cc(F)c2C)cc1
Reply text: 5%

Inquiry: Same again, this time with COc1cc2c(cc1OCCN1CCN(C)CC1)ncc1c3ccc(C#N)cc3[nH]c21
Reply text: 99.3%

Inquiry: Same again, this time with [2H]C([2H])(c1cccc(C(F)(F)F)c1C)n1ccn2c(=O)nc(N3CCOCC3)cc12
Reply text: 0%

---

For each entry below, report its %Inh value.
- Test system: PRP4
- condition: concentration: 1 μM, replicates: in singlicate; n = 1
Express it in %; write the number only.

Inquiry: What measured %Inh is associated with NS(=O)(=O)CCc1cccc(Nc2nccc(-c3c(-c4cccc(NC(=O)c5c(F)cccc5F)c4)nn4ccccc34)n2)c1 [GSK336735] on PRP4?
Reply text: 18

Inquiry: Same again, this time with Fc1ccc(-c2nn3c(OCC(F)(F)F)cccc3c2-c2ccncc2)cc1 [GW514784]
Reply text: 34

Inquiry: Same again, this time with Cl.Nc1ncnc2occ(-c3ccc(NC(=O)Nc4cc(C(F)(F)F)ccc4F)cc3)c12 [SB-707548]
Reply text: 8

Inquiry: Same again, this time with Cc1cn2c(=O)cc(N3CCOCC3)nc2n1Cc1cccc(Cl)c1Cl [GSK2334006]
Reply text: 0

Inquiry: Same again, this time with c1ccc(-c2n[nH]cc2-c2ccnc3ccccc23)nc1 [GW271431]
Reply text: 5

Inquiry: Same again, this time with CCc1nc(-c2cccc(C)c2)c(-c2ccnc(NCc3ccccc3)c2)s1
Reply text: 6

Inquiry: Same again, this time with O=C(Nc1n[nH]c2cc(-c3cccc(F)c3)ccc12)C1CC1 [SB-735464]
Reply text: 7

Inquiry: Same again, this time with COc1ccc(Nc2ncc(C#N)c(Nc3ccccc3C(N)=O)n2)cc1N1CCN(C)CC1.Cl [GSK1558669]
Reply text: 79

Inquiry: Same again, this time with Cn1ccc2ncnc(Oc3ccc(NC(=O)Nc4ccncc4)c(Cl)c3)c21
Reply text: 14
